Molecular target: Metabotropic glutamate receptor 8 (Rattus norvegicus) (UniProt P70579)
Sequence (P70579 whole entry, looked up): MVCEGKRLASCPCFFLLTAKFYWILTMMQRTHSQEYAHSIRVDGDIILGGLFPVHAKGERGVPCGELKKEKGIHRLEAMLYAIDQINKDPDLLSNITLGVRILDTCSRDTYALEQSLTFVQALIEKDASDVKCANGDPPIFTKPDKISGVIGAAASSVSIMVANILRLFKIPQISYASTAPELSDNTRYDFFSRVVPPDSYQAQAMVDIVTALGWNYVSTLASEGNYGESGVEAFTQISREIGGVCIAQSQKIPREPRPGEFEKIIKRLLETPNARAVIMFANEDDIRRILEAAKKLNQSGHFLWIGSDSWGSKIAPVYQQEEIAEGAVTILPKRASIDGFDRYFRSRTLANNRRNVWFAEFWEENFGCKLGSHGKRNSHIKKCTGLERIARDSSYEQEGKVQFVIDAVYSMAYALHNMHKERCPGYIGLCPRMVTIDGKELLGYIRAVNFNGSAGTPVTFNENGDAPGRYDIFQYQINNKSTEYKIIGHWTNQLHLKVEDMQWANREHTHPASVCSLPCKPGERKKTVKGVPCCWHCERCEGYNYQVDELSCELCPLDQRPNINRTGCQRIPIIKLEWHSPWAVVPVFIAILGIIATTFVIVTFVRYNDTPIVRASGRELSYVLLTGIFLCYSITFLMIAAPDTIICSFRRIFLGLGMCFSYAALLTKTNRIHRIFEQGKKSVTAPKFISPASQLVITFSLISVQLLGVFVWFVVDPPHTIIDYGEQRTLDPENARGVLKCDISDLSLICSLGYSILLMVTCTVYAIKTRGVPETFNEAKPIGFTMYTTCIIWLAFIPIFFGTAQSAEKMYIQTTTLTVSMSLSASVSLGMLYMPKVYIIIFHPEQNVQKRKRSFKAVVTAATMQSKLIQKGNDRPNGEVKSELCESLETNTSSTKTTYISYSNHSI
Test: mGluR8 Gi/Go-coupled signaling modulation – cell-based, rat, thallium flux, HTS, primary screen (AID 488969)
Conditions: HEK293 rat mGluR8, GIRK thallium flux, FluoZin2; at 10 µM; stronger effect = higher value; submaximal glutamate (EC20) added with thallium
Whole data set: some 110,000 compounds, median “z-score” near -0.1, cut for the highest 2% near 2. The list comes from a sample in which the highest values are over-represented; it also holds close analogues and randomly drawn compounds.
// class assignment uses z-score with these ranges: low (below -0.4), medium (-0.4 to below -0.1), high (-0.1 or more)

1. O=C(N=Nc1c(O)n(Cc2ccccc2)c2ccccc12)c1ccc(O)cc1    medium
2. CCn1c(SCC(=O)Nc2ccc(N3CCOCC3)c(Cl)c2)nnc1-c1ccc(N)cc1    high
3. O=C(Cc1ccccc1)Nc1c[nH]c(=O)[nH]c1=O    low
4. CCC(C)c1ccc(O)c(NC(=O)c2ncn[nH]2)c1 (configuration not stated)    medium
5. COc1ccc(C(=O)N/N=C/c2cccc3cccnc23)cc1    low
6. Cn1c(O)c(N=NC(=O)CNC(=O)c2ccco2)c2ccccc21    medium
7. CCC1CCCCN1S(=O)(=O)c1ccc(S(=O)(=O)N(Cc2ccccn2)CC2CCCO2)cc1 (configuration not stated)    medium
8. Cc1ccc2c(c1)c(N=NC(N)=S)c(O)n2Cc1ccccc1    high
9. O=C(Nc1ccc(Cc2ccncc2)cc1)C1CCC(N2C(=O)C3C4C=CC(C5CC45)C3C2=O)CC1 (configuration not stated)    low
10. NC(=S)N=Nc1c(O)n(Cc2ccc(F)cc2)c2ccccc12    high
11. c1ccc(COc2cccc(CNn3cnnc3)c2)cc1    medium
12. CCOC(=O)c1c(N)sc(C(O)(C(F)(F)F)C(F)(F)F)c1-c1ccc(OC)cc1OC    low

----------
Target: Metabotropic glutamate receptor 8 (Rattus norvegicus)
Assay: mGluR8 Gi/Go-coupled signaling modulation – cell-based, rat, thallium flux, HTS, primary screen (AID 488969)
Conditions: HEK293 rat mGluR8, GIRK thallium flux, FluoZin2; at 10 µM; stronger effect = higher value; submaximal glutamate (EC20) added with thallium
Whole data set: some 110,000 compounds, median “z-score” near -0.1, cut for the highest 2% near 2. What follows is part of a selection rich in the highest values, with near analogues and random picks from the rest.
measurementKind: z-score

1) CCOc1ccc(CC(=O)Nc2c(C(N)=O)oc3ccc(Br)cc23)cc1OCC    -0.0702
2) O=S(=O)(Nc1ncccn1)c1ccc(Nc2ncnc3ccccc23)cc1    0.439
3) CCCCCNC1=CC(=O)CC(c2ccccc2)C1 (centres undefined)    -0.123
4) CCOc1cc(C(=O)OCC(=O)c2c(C)[nH]c3ccccc23)ccc1OCC(=O)N1CCOCC1    -0.335

----------
Measured z-score, listed per entry for reference.
Biological target: Metabotropic glutamate receptor 8 (Rattus norvegicus)
Assay: mGluR8 Gi/Go-coupled signaling modulation – cell-based, rat, thallium flux, HTS, primary screen (AID 488969)
Details: HEK293 rat mGluR8, GIRK thallium flux, FluoZin2; at 10 µM; stronger effect = higher value; submaximal glutamate (EC20) added with thallium
The full ranking holds about 110,000 compounds; the median of “z-score” is about -0.1, and the highest 2% start at about 2. The entries come from a sample that favours the highest values as a whole.
measurementKind: z-score

1) O=C1CC(c2ccc3c(c2)OCO3)C2=C(CCCC2=O)N1 (stereo not drawn)    -0.2
2) CCN1CCN(C(=O)C2c3cc(OC)c(OC)cc3C(=O)N(C)C2c2ccc(SC)cc2)CC1 (stereo not drawn)    0.574
3) CC(=Nc1ccccc1)C1=C(O)CCCC1=O    -0.104
4) CCc1ccc(-c2cc(C(=O)NN3CCOCC3)c3ccccc3n2)cc1    -0.195
5) CCOc1ccc(N(CC)S(=O)(=O)c2ccc3c(c2)n(C)c(=O)c(=O)n3C)cc1    -0.239
6) O=C(CSc1ncnc2c1oc1ccccc12)NCC1CCCO1 (stereo not drawn)    -0.215
7) CCCCOC(=O)CNc1n[nH]c(=S)[nH]c1=O    0.182
8) O=C(NN1CCOCC1)c1cc(-c2ccccc2)nc2ccccc12    -0.494
9) O=C(CSc1nc2cc(Cl)ccc2c(=O)n1Cc1ccco1)Nc1ccc(S(=O)(=O)N2CCOCC2)cc1    2.05
10) CC1CCc2nc(NC(=O)CN3CCOCC3)sc2C1 (stereo not drawn)    -0.313
11) COc1ccc(Cl)cc1NC(=O)CS(=O)(=O)c1cccc2nsnc12    0.107
12) O=C(Cn1c(=O)oc2cc(S(=O)(=O)N3CCCCCC3)ccc21)NC1CCCCCCC1    -0.034
13) Cc1oc(-c2ccccc2Cl)nc1CSCC(=O)NC1CCCC1    -0.0255
14) O=C(CSc1nnc(-c2ccccc2)n1Cc1ccco1)Nc1ccc(S(=O)(=O)N2CCCC2)cc1    -1.61
15) CC1CCCCN1C(=O)Nc1cccc(Cl)c1 (stereo not drawn)    0.789
16) O=C(Cn1c(=O)oc2ccccc21)Nc1nnc(N2CCCCCC2)s1    -0.181
17) COc1ccc(S(=O)(=O)N2CCOCC2)cc1NC(=O)c1ccccc1-c1ccc(C(F)(F)F)cc1    -0.207
18) N/C(COc1cccc(C(F)(F)F)c1)=N\NC(=O)c1cccnc1Oc1ccccc1    -0.285

----------
Measured z-score, listed per entry for reference.
Biological target: Metabotropic glutamate receptor 8 (Rattus norvegicus)
Experiment: mGluR8 Gi/Go-coupled signaling modulation – cell-based, rat, thallium flux, HTS, primary screen (AID 488969)
Conditions: HEK293 rat mGluR8, GIRK (G protein-gated inwardly rectifying potassium channel) thallium flux, FluoZin2; at 10 µM; stronger effect = higher value; submaximal glutamate (EC20) added with thallium
Over roughly 110,000 compounds, “z-score” has its median near -0.1; the highest 2% begin near 2. This is one part of a sample in which the highest values are shown more often than they occur.
measurementKind: z-score

1. CCCNc1cc(C)c(C#N)c2nc3ccccc3n12    -1.34
2. O=C(Nc1nnc(-c2ccccc2Cl)o1)c1ccc(S(=O)(=O)N2CCCCCC2)cc1    13.1
3. CCN(CC)CCNC(=O)c1ccc(N2CCCCC2)c(NS(=O)(=O)c2ccc(C)cc2)c1    2.96
4. CCOC(=O)CSc1nc2ccccc2c(=O)n1C1CCCC1    0.684
5. COc1ccccc1-n1nnnc1SCC(=O)NC1CCCC1    -0.293
6. COc1cc(CNc2nc3ccccc3n2C)cc(OC)c1OC    -0.245
7. CCc1cc2c(NCc3ccco3)ncnc2s1    -0.444
8. CCN(CC)S(=O)(=O)c1ccc(N2CCOCC2)c(NC(=O)Cc2ccccc2)c1    -0.339
9. Cc1[nH]n(-c2ccccc2)c(=O)c1-c1cccc(Cl)c1    0.257
10. Cc1ccc(C2C(C=Nc3c(C)n(C)n(-c4ccccc4)c3=O)=C(c3ccccc3)Oc3ccccc32)cc1 (configuration not stated)    -0.137
11. COc1ccc(/C=C/C(=O)c2sc(-c3ccccc3)nc2C)cc1    0.276
12. COCc1nnc(NC(=O)c2ccc(S(=O)(=O)N3CCCCCC3)cc2)o1    -0.164
13. CC1CCCN(S(=O)(=O)c2ccc(C(=O)Nc3ccccc3-c3nc4ccccc4[nH]3)cc2)C1 (configuration not stated)    -0.205
14. COc1ccccc1NC(=O)c1ccc(N)cc1    0.511
15. CCOC(=O)c1cc2n(c1/N=C/N(C)C)-c1ccccc1C2=O    -0.437
16. CCNC(=S)N/N=C(\C)c1ccc(Cl)s1    4.7
17. COc1ccc(-c2cn3c(C)c(C(=O)N4CCN(c5ccc(F)cc5)CC4)sc3n2)cc1    0.116
18. Cc1ccc2cccc(NC(=S)NC(=O)c3ccnn3C)c2n1    2.25
19. Cc1nn(CC(=O)OCC(=O)Nc2ccccc2[N+](=O)[O-])c(C)c1[N+](=O)[O-]    0.113
20. Cc1nnc(NC(=O)c2ccc(S(=O)(=O)N3CCCCCC3)cc2)o1    -0.304
21. O=C(CCCCCN1C(=O)c2ccccc2C1=O)Nc1ccc(F)cc1    -0.0499
22. CCC(C)(C(=O)NC1CCCCC1)N(C(=O)c1ccccn1)c1ccc(C)cc1 (configuration not stated)    -0.103
23. CCOC(=O)c1sc2ncnc(NCc3ccco3)c2c1C    14.7
24. CNC(=S)N/N=C(\C)c1cccc([N+](=O)[O-])c1    -0.339
25. Nc1nc(-c2cccnc2)nn1C(=O)COc1ccccc1    -0.135
26. CCOC(=O)c1sc2nc(CC(=O)OC)nc(NCc3ccco3)c2c1C    -0.245
27. CCOC(=O)c1c(C)n(C)c2ccc(OCC(O)CN(CC)CC)cc12 (configuration not stated)    0.554
28. CCc1ccccc1NC(=O)CSc1ncn[nH]1    -0.0941
29. CCOC(=O)c1cc2n(c1N)-c1ccccc1C2=O    5.13
30. CCNC(=S)N/N=C(\C)c1cccc([N+](=O)[O-])c1    0.559
31. COC(=O)c1nn(Cc2ccccc2)c(=O)c2ccccc12    0.721
32. C=C(C)CNC(=S)N/N=C/c1ccc(N2CCOCC2)cc1    0.134
